# ASSAYED TARGET: MRG15 MRG polypeptide (residues 155–323), K201R background (human) (UniProt Q9UBU8)
# ASSAY DETAILS: NMR titration
ATTRIBUTE MEASURED: Kd (µM)
Express it in µM; write the number only.

Q: What value of measured Kd is listed for ERNPTQFQLPNELT [Pf1 peptide corresponding to the tail segment (residues 219–232)] ?
A: 119

The reported measurements were obtained from paper PMC3259534.
